# PROTOCOL_SUMMARY: Inhibition of GAT3-mediated [3H]GABA uptake in bovine brain stem membrane fraction 2C compound preincubated for 10 mins by scintillation counting
# Format: cell membranes, Bos taurus
PROPERTY_LABEL: IC50 (µM)

A = COc1ccc([C@]2(O)C[C@@H](C(=O)O)N(CCC=C(c3ccccc3)c3ccccc3)C2)cc1
B = COc1ccc(C(OCCN2C[C@](O)(c3ccc(OC)cc3)C[C@H]2C(=O)O)(c2ccc(OC)cc2)c2ccc(OC)cc2)cc1
C = COc1ccc(C(OCCN2C[C@@](O)(c3ccc(OC)cc3)C[C@H]2C(=O)O)(c2ccc(OC)cc2)c2ccc(OC)cc2)cc1
Prompt: Sort the compounds on IC50; start with the lowest figure. In plain terms: list the labels in the order you were asked to.
Completion: B, C, A
(B: 29.7 µM, C: 63.3 µM, A: 237 µM)

###

# PROTOCOL_SUMMARY: Inhibition of GAT1-mediated [3H]GABA uptake in bovine frontal cortex membrane fraction 2B compound preincubated for 10 mins by scintillation counting
# Assay type: cell membranes, Bos taurus
PROPERTY_LABEL: IC50 (µM)

1 = COc1ccc(C(OCCN2C[C@](O)(c3ccc(OC)cc3)C[C@H]2C(=O)O)(c2ccc(OC)cc2)c2ccc(OC)cc2)cc1
2 = COc1ccc(C(OCCN2C[C@@](O)(c3ccc(OC)cc3)C[C@H]2C(=O)O)(c2ccc(OC)cc2)c2ccc(OC)cc2)cc1
Prompt: // compare: 1 vs 2 , metric IC50, want the smaller Answer with the label corresponding to your selection.
Completion: 1

###

# PROTOCOL_SUMMARY: Inhibition of GAT3-mediated [3H]GABA uptake in porcine brain stem membrane fraction 2C compound preincubated for 10 mins by scintillation counting
# Format: cell membranes, Sus scrofa
pIC50: −log10 of the molar value.
PROPERTY_LABEL: pIC50

COc1ccc(C(OCCN2C[C@@](O)(c3ccc(OC)cc3)C[C@@H]2C(=O)O)(c2ccc(OC)cc2)c2ccc(OC)cc2)cc1; 4.42

1 = COc1ccc([C@@]2(O)C[C@@H](CC(=O)O)N(CCC=C(c3sccc3C)c3sccc3C)C2)cc1
2 = COc1ccc(C(OCCN2C[C@@](O)(c3ccc(OC)cc3)C[C@@H]2CC(=O)O)(c2ccc(OC)cc2)c2ccc(OC)cc2)cc1
Prompt: Between 1 and 2 , which one shows the larger pIC50 value? Answer with the label corresponding to your selection.
Completion: 2

###

# PROTOCOL_SUMMARY: Inhibition of GAT3-mediated [3H]GABA uptake in calf brain stem membrane fraction 2C compound preincubated for 10 mins by scintillation counting
# Type: cell membranes, Bos taurus
pIC50: −log10 of the molar value.
The entries below come with measured pIC50 values attached.

COc1ccc([C@@]2(O)C[C@H](C(=O)O)N(CCC=C(c3ccccc3)c3ccccc3)C2)cc1; < 4.00

Consider now this further compound.
// `COc1ccc([C@]2(O)C[C@H](C(=O)O)N(CCC=C(c3ccccc3)c3ccccc3)C2)cc1` : pIC50 value = < 4.00

###

# Organism: Sus scrofa
# PROTOCOL_SUMMARY: Inhibition of GAT3-mediated [3H]GABA uptake in porcine brain stem membrane fraction 2C assessed as remaining GABA uptake activity preincubated at 100 uM for 10 mins by scintillation counting
# Format: cell membranes
The entries below come with measured Activity values attached.

Take a look at these entries with their results.
COc1ccc([C@@]2(O)C[C@H](CC(=O)O)N(CCC=C(c3sccc3C)c3sccc3C)C2)cc1; > 50%
COc1ccc([C@@]2(O)CN[C@H](CC(=O)O)C2)cc1; > 50%
COc1ccc([C@]2(O)C[C@H](CC(=O)O)N(CCC=C(c3sccc3C)c3sccc3C)C2)cc1; > 50%
COc1ccc([C@]2(O)CN[C@@H](C(=O)O)C2)cc1; > 50%
COc1ccc([C@@]2(O)CN[C@H](C(=O)O)C2)cc1; > 50%

// `COc1ccc([C@]2(O)CN[C@@H](CC(=O)O)C2)cc1` : Activity value = > 50%

###

# PROTOCOL_SUMMARY: Inhibition of GAT3-mediated [3H]GABA uptake in porcine brain stem membrane fraction 2C compound preincubated for 10 mins by scintillation counting
# Format: cell membranes, Sus scrofa
PROPERTY_LABEL: IC50 (µM)

Take a look at these entries with their results.
COc1ccc(C(OCCN2C[C@](O)(c3ccc(OC)cc3)C[C@H]2CC(=O)O)(c2ccc(OC)cc2)c2ccc(OC)cc2)cc1; 66.7
COc1ccc(C(OCCN2C[C@](O)(c3ccc(OC)cc3)C[C@@H]2CC(=O)O)(c2ccc(OC)cc2)c2ccc(OC)cc2)cc1; 65.4

I = COc1ccc(C(OCCN2C[C@@](O)(c3ccc(OC)cc3)C[C@H]2CC(=O)O)(c2ccc(OC)cc2)c2ccc(OC)cc2)cc1
II = COc1ccc([C@]2(O)C[C@@H](CC(=O)O)N(CCC=C(c3sccc3C)c3sccc3C)C2)cc1
Prompt: // compare: I vs II , metric IC50, want the smaller Answer with the label corresponding to your selection.
Completion: I
(I: 78.9 µM, II: 124 µM)
